target-or-system: T1, human recombinant His-tagged HER2 extracellular domain (human, UniProt P04626 23-652)
T1 construct: extracellular domain; also called HER2-ECD; HER-ECD
measurement-description: competition EIA on coated HER2, competitor trastuzumab-biotin; given as ED50

| binder | IC50 [µg/mL] |
| --- | --- |
| 2A2 (antibody, IgG2a, V domains shown, also called AGRD017-2A2; fully human 2A2 antibody) VH: EVQLVESGGGLVQPGRSLRLSCAASGFTFDDYAMHWVRQAPGKGLEWVSGISWNGGTLGYADSVKGRFTISRDNAKNSLYLQMNSLRAEDTALYYCAKDTGSYSHWYFDLWGRGTLVTVSS VL: EIVMTQSPATLSVSPGERATLSCRASQSVRSNLAWYQQKPGQAPRLLIYGASTRATGIPARFSGSGSGTEFTLTISSLHSEDFAVYYCQQYNNWPTFGQGTKVEIK | 0.09 |
| 8C1 (antibody, IgG2a, V domains shown, also called AGRD017-8C1; fully human 8C1 antibody) VH: EVQLVESGGGLVQPGRSLRLSCTASGFTFDDYAMHWVRQAPGKGLEWVSGISWNGGTLGYADSVKGRFTISRDNAKNSLYLQMNSLRAEDTALYYCAKDTGSYSHWYFDLWGRGTLVTVSS VL: EIVMTQSPATLSVSPGERATLSCRASQSVRSNLAWYQQKPGQAPRLLIYGASTRATGIPARFSGSGSGTEFTLTISSLHSEDFAVYYCQQYNNWPTFGQGTKVEIK | 0.1 |
| 3G7 (antibody, IgG1, V domains shown, also called AGRD017-3G7; fully human 3G7 antibody) VH: EVQLVESGGGLVQPGRSLRLSCAASGFTFDDYAMHWVRQAPGKGLEWVSGVSWNGGTMGYAGSVKGRFTISRDNAKNSLYLQMNSLRAEDTALYYCAKDTGSYSHWYFDLWGRGTLVTVSS VL: EIVMTQSPATLSVSPGERATLSCRASQSVRSNLAWYQQKPGQAPRLLIYGASTRATGIPGRFSGSGSGTEFILTISSLQSEDFAVYYCQQYNNWPTFGQGTKVEIK | 0.06 |

Data origin, for the record: patent US20260132218A1
